IC50 values, listed per item
target or test system: BRD4(BD1) (Homo sapiens)
Construct: a BRD4(BD1) synthetic gene that includes a TEV cleavage site was purchased from LifeTechnology; made in house
protocol text: HTRF assay, disruption of bromodomain/histone peptide interaction
Format: binding
stated conditions: HTRF; mean ± SD of three experiments; Table 2; read-out: IC50 μM, effect on BRD4(BD1) activity
property: IC50 (µM)

[
  {
    "compound": "CCc1cc(CC)n2nc(Sc3nc4c(c(=O)[nH]c(=O)n4Cc4ccc(Cl)cc4)n3CC)nc2n1 [Compound 30a]",
    "target or test system": "BRD4(BD1) (Homo sapiens)",
    "property": "IC50",
    "operator": "=",
    "measured number": 18.3
  },
  {
    "compound": "CCn1cnc2[nH]c(N)nc(=O)c21 [Compound 1c, 7-ethylguanine]",
    "target or test system": "BRD4(BD1) (Homo sapiens)",
    "property": "IC50",
    "operator": ">",
    "measured number": 100
  },
  {
    "compound": "CC(C)Cn1cnc2[nH]c(=O)[nH]c(=O)c21 [Compound 3b]",
    "target or test system": "BRD4(BD1) (Homo sapiens)",
    "property": "IC50",
    "operator": ">",
    "measured number": 100
  },
  {
    "compound": "CCCCn1c(N)nc(=O)c2c1ncn2CC [Compound 8c]",
    "target or test system": "BRD4(BD1) (Homo sapiens)",
    "property": "IC50",
    "operator": "=",
    "measured number": 10.7
  },
  {
    "compound": "O=C(O)CCSc1nc2c([nH]1)c(=O)[nH]c(=O)n2Cc1ccc(F)cc1 [Compound 16a]",
    "target or test system": "BRD4(BD1) (Homo sapiens)",
    "property": "IC50",
    "operator": ">",
    "measured number": 100
  },
  {
    "compound": "Cn1c(-c2ccc(Cl)cc2)nc2c1c(=O)[nH]c(=O)n2Cc1ccccc1 [Compound 10c]",
    "target or test system": "BRD4(BD1) (Homo sapiens)",
    "property": "IC50",
    "operator": ">",
    "measured number": 100
  },
  {
    "compound": "Cn1cnc2nc(N)[nH]c(=O)c21 [Compound 1b]",
    "target or test system": "BRD4(BD1) (Homo sapiens)",
    "property": "IC50",
    "operator": ">",
    "measured number": 100
  },
  {
    "compound": "CCn1cnc2c1c(=O)nc(N)n2Cc1ccc(Cl)cc1 [Compound 9a]",
    "target or test system": "BRD4(BD1) (Homo sapiens)",
    "property": "IC50",
    "operator": ">",
    "measured number": 100
  },
  {
    "compound": "CCCCn1c(=O)[nH]c(=O)c2c1nc(Cl)n2CC [Compound 12c, 3-Butyl-8-chloro-7-ethylxanthine]",
    "target or test system": "BRD4(BD1) (Homo sapiens)",
    "property": "IC50",
    "operator": ">",
    "measured number": 100
  },
  {
    "compound": "CCn1cnc2c1c(=O)[nH]c(=O)n2CC [Compound 5a]",
    "target or test system": "BRD4(BD1) (Homo sapiens)",
    "property": "IC50",
    "operator": "=",
    "measured number": 70.3
  },
  {
    "compound": "CCn1cnc2c1c(=O)[nH]c(=O)n2Cc1ccc(C(C)(C)C)cc1 [Compound 7b]",
    "target or test system": "BRD4(BD1) (Homo sapiens)",
    "property": "IC50",
    "operator": "=",
    "measured number": 2.6
  },
  {
    "compound": "CCCCn1c(=O)[nH]c(=O)c2c1nc(CO)n2CC [Compound 18a, 3-Butyl-7-ethyl-8-hydroxymethylxanthine]",
    "target or test system": "BRD4(BD1) (Homo sapiens)",
    "property": "IC50",
    "operator": ">",
    "measured number": 100
  },
  {
    "compound": "CCn1cnc2c1c(=O)[nH]c(=O)n2CC(C)C [Compound 5c]",
    "target or test system": "BRD4(BD1) (Homo sapiens)",
    "property": "IC50",
    "operator": ">",
    "measured number": 100
  },
  {
    "compound": "CCCCn1c(=O)[nH]c(=O)c2c1nc(CSc1nc3nc(C)cc(C)n3n1)n2CC [Compound 24b]",
    "target or test system": "BRD4(BD1) (Homo sapiens)",
    "property": "IC50",
    "operator": "=",
    "measured number": 69.6
  },
  {
    "compound": "CCn1c(CSc2nc3ccccc3[nH]2)nc2c1c(=O)[nH]c(=O)n2Cc1ccc(Cl)cc1 [Compound 23a]",
    "target or test system": "BRD4(BD1) (Homo sapiens)",
    "property": "IC50",
    "operator": ">",
    "measured number": 100
  },
  {
    "compound": "CCCCc1c(C)nc2nc(CSc3nc4c(c(=O)[nH]c(=O)n4CCCC)n3CC)nn2c1C [Compound 32a]",
    "target or test system": "BRD4(BD1) (Homo sapiens)",
    "property": "IC50",
    "operator": "=",
    "measured number": 54
  },
  {
    "compound": "CCn1cnc2c1c(=O)[nH]c(=O)n2C(C)C [Compound 5b]",
    "target or test system": "BRD4(BD1) (Homo sapiens)",
    "property": "IC50",
    "operator": "=",
    "measured number": 52.5
  },
  {
    "compound": "CCc1cc(CC)n2nc(SCc3nc4c(c(=O)[nH]c(=O)n4Cc4ccc(Cl)cc4)n3CC)nc2n1 [Compound 26a]",
    "target or test system": "BRD4(BD1) (Homo sapiens)",
    "property": "IC50",
    "operator": "=",
    "measured number": 7.9
  },
  {
    "compound": "CCn1c(SC)nc2c1c(=O)[nH]c(=O)n2C [Compound 15c]",
    "target or test system": "BRD4(BD1) (Homo sapiens)",
    "property": "IC50",
    "operator": "=",
    "measured number": 100
  },
  {
    "compound": "CCCCc1c(C)nc2nc(SCc3nc4c(c(=O)[nH]c(=O)n4Cc4ccc(Cl)cc4)n3C)nn2c1C [Compound 27a]",
    "target or test system": "BRD4(BD1) (Homo sapiens)",
    "property": "IC50",
    "operator": "=",
    "measured number": 100
  },
  {
    "compound": "CCCCn1c(=O)[nH]c(=O)c2c1nc(S)n2CC [Compound 15a, 3-butyl-7-ethyl-8-mercaptoxanthine]",
    "target or test system": "BRD4(BD1) (Homo sapiens)",
    "property": "IC50",
    "operator": "=",
    "measured number": 35.1
  },
  {
    "compound": "CCCCn1c(=O)[nH]c(=O)c2c1nc(CO)n2C [Compound 17c]",
    "target or test system": "BRD4(BD1) (Homo sapiens)",
    "property": "IC50",
    "operator": ">",
    "measured number": 100
  },
  {
    "compound": "Cn1cnc2c1c(=O)[nH]c(=O)n2Cc1ccc(Cl)cc1 [Compound 4b]",
    "target or test system": "BRD4(BD1) (Homo sapiens)",
    "property": "IC50",
    "operator": "=",
    "measured number": 9
  },
  {
    "compound": "CCCCc1c(C)nc2nc(CSc3nc4c(c(=O)[nH]c(=O)n4Cc4ccc(Cl)cc4)n3CC)nn2c1C [Compound 31b]",
    "target or test system": "BRD4(BD1) (Homo sapiens)",
    "property": "IC50",
    "operator": "=",
    "measured number": 59.6
  },
  {
    "compound": "Nc1nc2nc[nH]c2c(=S)[nH]1 [Compound 2a]",
    "target or test system": "BRD4(BD1) (Homo sapiens)",
    "property": "IC50",
    "operator": ">",
    "measured number": 100
  },
  {
    "compound": "CCn1c(Sc2nc3nc(C)cc(C)n3n2)nc2c1c(=O)[nH]c(=O)n2Cc1ccc(Cl)cc1 [Compound 29a]",
    "target or test system": "BRD4(BD1) (Homo sapiens)",
    "property": "IC50",
    "operator": ">",
    "measured number": 100
  },
  {
    "compound": "CCCCc1c(C)nc2nc(Sc3nc4c(c(=O)[nH]c(=O)n4Cc4ccc(Cl)cc4)n3CC)nn2c1C [Compound 31a]",
    "target or test system": "BRD4(BD1) (Homo sapiens)",
    "property": "IC50",
    "operator": "=",
    "measured number": 46.8
  },
  {
    "compound": "O=c1[nH]c(=O)c2[nH]c(Br)nc2[nH]1 [Compound 11b]",
    "target or test system": "BRD4(BD1) (Homo sapiens)",
    "property": "IC50",
    "operator": ">",
    "measured number": 100
  },
  {
    "compound": "CCCCn1c(=O)[nH]c(=O)c2c1nc(CSc1n[nH]c(N)n1)n2CC [Compound 21b]",
    "target or test system": "BRD4(BD1) (Homo sapiens)",
    "property": "IC50",
    "operator": "=",
    "measured number": 89.1
  },
  {
    "compound": "CCn1cnc2c1c(=O)nc(NC(=O)OC(C)(C)C)n2Cc1ccc(Cl)cc1 [Compound 8a]",
    "target or test system": "BRD4(BD1) (Homo sapiens)",
    "property": "IC50",
    "operator": ">",
    "measured number": 100
  },
  {
    "compound": "CCCCn1c(=O)[nH]c(=O)c2c1nc(Sc1nc3nc(C)cc(C)n3n1)n2CC [Compound 28b]",
    "target or test system": "BRD4(BD1) (Homo sapiens)",
    "property": "IC50",
    "operator": ">",
    "measured number": 100
  },
  {
    "compound": "CCn1cnc2c1c(=O)[nH]c(=O)n2C [Compound 4c]",
    "target or test system": "BRD4(BD1) (Homo sapiens)",
    "property": "IC50",
    "operator": ">",
    "measured number": 100
  },
  {
    "compound": "CCCCn1c(=O)[nH]c(=O)c2c1ncn2CC [Compound 6a, 3-Butyl-7-ethylxanthine]",
    "target or test system": "BRD4(BD1) (Homo sapiens)",
    "property": "IC50",
    "operator": "=",
    "measured number": 13
  },
  {
    "compound": "CCCCn1c(=O)[nH]c(=O)c2c1nc(CCl)n2CC [Compound 19c, 3-butyl-8-chloromethyl-7-ethylxanthine]",
    "target or test system": "BRD4(BD1) (Homo sapiens)",
    "property": "IC50",
    "operator": ">",
    "measured number": 100
  },
  {
    "compound": "CCn1cnc2c1c(=O)[nH]c(=O)n2Cc1ccc(Br)cc1 [Compound 6c]",
    "target or test system": "BRD4(BD1) (Homo sapiens)",
    "property": "IC50",
    "operator": "=",
    "measured number": 2.6
  },
  {
    "compound": "O=c1[nH]c(=O)c2[nH]cnc2[nH]1 [Compound 2b, xanthine]",
    "target or test system": "BRD4(BD1) (Homo sapiens)",
    "property": "IC50",
    "operator": ">",
    "measured number": 100
  }
]

Data provenance: patent US11225481B2
